- Tested on: NRK
- assay-protocol: Cytotoxicity against rat NRK cells assessed as reduction in cell viability incubated for 24 hrs under 19% O2 condition by Hoechst 33342 staining based microscopic analysis
pEC50: −log10 of the molar value.
reported-property: pEC50

The molecule identified as Nc1n[n+]([O-])c2ccccc2[n+]1[O-] registered its pEC50 at < 4.00

* * *

- System: NRK
- assay-protocol: Cytotoxicity against rat NRK cells assessed as reduction in cell viability incubated for 24 hrs under 2% O2 condition by WST-1 assay
- Type: cell-based
Please use YES for EC50 under 20 µM and NO for everything else, ties included.

For orientation, consider the following solved cases.
> print(dat)
                                smiles.data  category.label
1  CN1CCN(C(=O)Oc2cccc3c2[n+]([O-])c2cc(Cl)c(Cl)cc2[n+]3[O-])CC1             YES
2  CCOC(=O)COc1cccc2c1[n+]([O-])c1ccccc1[n+]2[O-]              NO
3  O=C(Oc1cccc2c1[n+]([O-])c1cccc(O)c1[n+]2[O-])N1CCCC1             YES
4  CCOC(=O)COc1cccc2c1[n+]([O-])c1cc(Br)c(Br)cc1[n+]2[O-]             YES
5  COc1cccc2c1[n+]([O-])c1cccc(O)c1[n+]2[O-]              NO

*Q* Find out if reported EC50 for CCOC(=O)COc1cccc2c1[n+]([O-])c1cccc(O)c1[n+]2[O-] is less than 20 µM
*A* YES

*Q* Find out if reported EC50 for CCOC(=O)Oc1cccc2c1[n+]([O-])c1cccc(OC(=O)OCC)c1[n+]2[O-] is less than 20 µM
*A* NO

*Q* Find out if reported EC50 for CN(C)C(=O)Oc1cccc2c1[n+]([O-])c1cccc(O)c1[n+]2[O-] is less than 20 µM
*A* NO

*Q* Find out if reported EC50 for CN1CCN(C(=O)Oc2cccc3c2[n+]([O-])c2ccccc2[n+]3[O-])CC1 is less than 20 µM
*A* NO

*Q* Find out if reported EC50 for CC(C)(C)OC(=O)COc1cccc2c1[n+]([O-])c1ccccc1[n+]2[O-] is less than 20 µM
*A* NO
